All values here come from paper PMC8134483.

biological target: hCB2R (Homo sapiens); construct: host or cells: CHO-K1 (PathHunter); assay: PathHunter βarrestin2 recruitment, CB2R; assay type: cell-based
Sequence (P34972 whole entry): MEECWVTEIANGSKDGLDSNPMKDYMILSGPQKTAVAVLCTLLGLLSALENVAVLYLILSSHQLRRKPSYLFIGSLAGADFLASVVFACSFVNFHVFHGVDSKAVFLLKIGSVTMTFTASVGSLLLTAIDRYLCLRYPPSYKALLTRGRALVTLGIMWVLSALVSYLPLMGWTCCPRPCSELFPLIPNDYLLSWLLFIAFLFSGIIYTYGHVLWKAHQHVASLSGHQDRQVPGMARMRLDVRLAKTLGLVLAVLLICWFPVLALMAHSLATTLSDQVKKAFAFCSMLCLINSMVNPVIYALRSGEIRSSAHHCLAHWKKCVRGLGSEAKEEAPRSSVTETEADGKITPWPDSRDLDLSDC
Rule: EC50 below 200 nM gives true (1), anything at or above gives false (0).

// known answers, use as guide
compound	assigned.category
COC(=O)[C@@H](NC(=O)c1nn(CCCCF)c2ccccc12)C(C)(C)C	true (1)
CCCCCn1cc(C(=O)c2ccc(CCC)c3ccccc23)c2ccccc21	false (0)
CCC(Cl)CCn1nc(C(=O)NC(C(N)=O)C(C)C)c2ccccc21 (centres unmarked)	true (1)
O=C(c1ccc(Cl)c2ccccc12)c1cn(CCCCCF)c2ccccc12	true (1)
CCCCCn1cc(C(=O)c2cccc3ccccc23)cc1-c1ccccc1	true (1)
Cc1ccc(C(=O)c2cn(CCCCCCl)c3ccccc23)c2ccccc12	false (0)
O=C(Nc1cccc2ccccc12)c1cn(Cc2ccc(F)cc2)c2ccccc12	false (0)
CC(C)C(NC(=O)c1nn(Cc2cccc(F)c2)c2ccccc12)C(N)=O (centres unmarked)	false (0)
CC(C)CCn1cc(C(=O)c2ccc3ccccc3c2)c2ccccc21 [JWH 018 2'-naphthyl-N-(3-methylbutyl) isomer]	false (0)
COC(=O)[C@H](Cc1ccccc1)NC(=O)c1cn(CCCCCF)c2ccccc12	false (0)

Is the reported EC50 for `N#CCCCCn1cc(C(=O)c2cccc3ccccc23)c2ccccc21` strictly below 200 nM?
true (1)

Is the reported EC50 for CCCC(F)Cn1nc(C(=O)NC(C(N)=O)C(C)C)c2ccccc21 (stereo not drawn) [AB-PINACA N-(2-fluoropentyl) isomer] strictly below 200 nM?
true (1)

Is the reported EC50 for `O=C(Oc1cccc2cccnc12)c1nn(CCCCCF)c2ccccc12` strictly below 200 nM?
false (0)

Is the reported EC50 for CC(C)C(NC(=O)c1nn(Cc2ccccc2F)c2ccccc12)C(N)=O (centres unmarked) strictly below 200 nM?
true (1)
